# Test system: NCI-H358
# procedure summary: 72-hour CellTiter-Glo 2.0 growth inhibition screen (single agent, 9x9 combination dose matrix)
# Format: cell-based
# test context: Homo sapiens, NCI-H358, 72 h, NCl-H358, Lung; Additional Single Agent Responses (inhibition, % I), 72 h
recorded endpoint: pEC50
On this scale, pEC50 is minus log10 of a concentration expressed in M (mol/L).

What does the data say about its pEC50? Entry: `CN1CCN(c2ccc(OC(F)(F)F)c(Nc3ncc4c(n3)-c3c(c(C(N)=O)nn3CCO)CC4)c2)CC1`
7.78

Next: `CC[C@@H]1C(=O)N(C)c2cnc(Nc3ccc(C(=O)N[C@H]4CC[C@H](N5CCN(CC6CC6)CC5)CC4)cc3OC)nc2N1C(C)C`
8.21

Entry to check: `C=CC(=O)N1CCN(c2nc(=O)n(-c3c(C)ccnc3C(C)C)c3nc(-c4c(O)cccc4F)c(F)cc23)[C@@H](C)C1`
8.07
